These entries and their values trace back to PubChem BioAssay (NCI).

test system: HOP-92 NSCLC; experiment: NCI tumour cell line growth inhibition, 48 h; in the data active = GI50 below about 0.43 µM; inactive = the rest
I would appreciate it if you answered using one of these outcomes: y = active, n = inactive

[
  {
    "COMPOUND": "O=C(NO)c1ccc(Cn2c(=O)n(-c3ccccc3F)c(=O)c3ccccc32)cc1",
    "GROUP_LABEL": "n"
  },
  {
    "COMPOUND": "CC1=C([Te]c2ccc(O)cc2)C(=O)c2ccccc2C1=O",
    "GROUP_LABEL": "n"
  },
  {
    "COMPOUND": "C=C1C(=O)O[C@@H]2C1C[C@@H](O)C(=C)CC/C=C(\\C)CCC[C@H](C)[C@H]2OC(C)=O (some centres not stated)",
    "GROUP_LABEL": "n"
  },
  {
    "COMPOUND": "O=C(/C(=C/c1ccc([N+](=O)[O-])cc1)SCc1ccc(F)cc1)c1ccc(Cl)cc1",
    "GROUP_LABEL": "n"
  },
  {
    "COMPOUND": "CC(=O)[C@@]1(O)[C@H](C)C[C@H]2[C@@H]3C=C(C)C4=Cc5c(cnn5-c5ccccc5)C[C@]4(C)[C@H]3[C@@H](O)C[C@@]21C",
    "GROUP_LABEL": "n"
  },
  {
    "COMPOUND": "COc1ccc(-c2c(-c3cc(OC)c(OC)c(OC)c3)noc2N)cc1",
    "GROUP_LABEL": "y"
  }
]

Read the next record carefully.
Outcome logged for `CCOC(=O)[C@@H](C)C[C@H](Cc1ccccc1)NC(=O)c1csc([C@@H](C[C@H](C(C)C)N(C)C(=O)[C@H](CC)NC(=O)[C@H]2CCCCN2C)OC(C)=O)n1` in this assay:
y

---

system: HL-60(TB) leukemia; assay: NCI tumour cell line growth inhibition, 48 h
PARAMETER_MEASURED: TGI

Example compounds with recorded TGI:
[
  {
    "SMILES_CODE": "COc1cc(/C=C2\\C(=O)N(C(=O)c3ccc(NC(C)=O)cc3)N=C2C)ccc1O",
    "STUDY_SYSTEM": "HL-60(TB) leukemia",
    "TGI": "> 100 µM"
  },
  {
    "SMILES_CODE": "O[C@@H]1C[C@H]2N3CC[C@@]2(c2cc4c(cc2C3)OCO4)[C@H]2O[C@@H]12",
    "STUDY_SYSTEM": "HL-60(TB) leukemia",
    "TGI": "> 100 µM"
  },
  {
    "SMILES_CODE": "CC(=O)OCCOc1cc2c([nH]c3ccccc32)c(C)c2cccc1-2",
    "STUDY_SYSTEM": "HL-60(TB) leukemia",
    "TGI": "12.9 µM"
  },
  {
    "SMILES_CODE": "COc1cc(Nc2nc3ccc(C(F)(F)F)cc3nc2C(=O)O)cc(OC)c1OC",
    "STUDY_SYSTEM": "HL-60(TB) leukemia",
    "TGI": "> 100 µM"
  }
]

So what's the measured TGI for this one? `c1ccc(CN=C(NCc2ccccc2)NCc2ccccc2)cc1`
13.2 µM

---

system: TK-10 renal; experiment: NCI tumour cell line growth inhibition, 48 h
Would you kindly list TGI for each of these compounds?

Example compounds with recorded TGI:
[
  {
    "COMPOUND": "Cc1ccc(-c2nc(-c3cnccn3)n(C3OC(CO)C(O)C(O)C3O)n2)cc1 (stereo not given)",
    "READING": "> 100 µM"
  },
  {
    "COMPOUND": "Cc1nc(C(N)=S)sc1C(=O)CC(=O)C(=O)Nc1nc2ccccc2[nH]1",
    "READING": "> 100 µM"
  },
  {
    "COMPOUND": "O=c1[nH]cnc2c1CCCN2",
    "READING": "> 100 µM"
  },
  {
    "COMPOUND": "CCOc1ccc(NC(=O)C2=C(C)NC(C)=C(C(=O)Nc3ccc(OCC)cc3)C2c2ccccc2)cc1",
    "READING": "> 100 µM"
  },
  {
    "COMPOUND": "CN(C)/C=N/NC(=O)/C(C#N)=C/N(C)C",
    "READING": "> 100 µM"
  },
  {
    "COMPOUND": "COc1ccc(OC)c(-c2cc(=O)c3c(OC)c(OC)c(OC)c(OC)c3o2)c1",
    "READING": "> 100 µM"
  },
  {
    "COMPOUND": "COC(=O)/C=C\\C(C#N)(C#N)N=Cc1ccc(Br)s1",
    "READING": "6.65 µM"
  },
  {
    "COMPOUND": "CN(C)CCCCN1c2ccccc2Sc2ccc(C(=O)c3ccccc3)cc21",
    "READING": "8.42 µM"
  }
]

Report TGI for each item below.
1. COc1cc(N(Cc2ccc3nc(OC)c(OC)nc3c2)Cc2ccc3nc(OC)c(OC)nc3c2)cc(OC)c1OC
2. CC(=O)C1(N=Nc2ccc(S(N)(=O)=O)cc2)CCOC1=O (stereo not given)
3. c1ccc(C[N+]23CN4CN(CN(C4)C2)C3)cc1
4. COC1CC(NC(=O)C(F)(F)F)C(OC(C)=O)C(C)O1 (stereo not given)

> 50 µM
> 100 µM
> 100 µM
> 100 µM

Report TGI for each item below.
1. Cc1ccc2[nH]c3c(c2c1)C1CCC(C(C)(C)C)CC1C1C(=O)N(c2ccc4c(c2)OCO4)C(=O)C31 (stereo not given)
2. COc1ccc(OC)c(CC(C)N)c1 (stereo not given)
3. C[n+]1ccc(-c2c3nc(c(-c4cc[n+](C)cc4)c4ccc([n-]4)c(-c4cc[n+](C)cc4)c4nc(c(-c5cc[n+](C)cc5)c5ccc2[n-]5)C=C4)C=C3)cc1.[I-].[Zn+2]
4. O=[N+]([O-])c1cc(Cl)cc2cc(Br)cnc12
5. N#CS.N=C=S.N=C=S.[Cu+2].[NH2-].[NH2-].[NH2-].[NH2-].c1ccc2ncccc2c1
6. CNc1nnc(CNc2ccc(-c3nnc(NC)n3N)cc2)n1N
7. CCC1C(=O)C(O)[C@H]2[C@@H]3C(O)CC4=CC(=O)CC[C@]4(C)[C@H]3CC[C@]12C (stereo not given in full)

1. 4.32 µM
2. > 100 µM
3. 38 µM
4. > 31.6 µM
5. > 100 µM
6. > 100 µM
7. > 50 µM

So what's the measured TGI for this one? `CNC(=O)c1cccc2c(Nc3ccc(NS(C)(=O)=O)cc3OC)c3cccc(C)c3nc12`
8.2 µM
